- Method summary: Plasma concentration in VEGF stimulated-mouse at 100 mg/kg, po after 4 hrs
- Format: ADME, organism-based
- Set-up: dose 100 mg/kg, route oral
Property name: concentration at 4 h (µM)
Please give a number only; it is taken to be in µM.

Query: Consider the compound shown here: CCN1CCC(Nc2ccc3c(c2)C(=C(c2ccc(Cl)cc2)c2ncc[nH]2)C(=O)N3)CC1 (mixture of isomers) What is its recorded concentration at 4 h?
Result: 0.62

====

- Method summary: AUC (0 to infinity) in rat at 10 mg/kg, po
- Format: ADME, organism-based
- Design: time infinity, dose 10 mg/kg, route oral
- Condition parameters: plasma
AUC(0-inf) below 2 µM·h gives 0.0; AUC(0-inf) at or above it gives 1.0.

Record excerpt, results attached:
Molecule: CCN1CCC(Nc2ccc3c(c2)C(=C(c2ccc(Cl)cc2)c2ncc[nH]2)C(=O)N3)CC1 (mixture of isomers)
Assigned label: 1.0
//
Molecule: CCN1CCC(Nc2ccc3c(c2)C(=C(c2ccc(C)cc2)c2nc4ccccc4[nH]2)C(=O)N3)CC1 (mixture of isomers)
Assigned label: 1.0
//
Molecule: CCN1CCC(Nc2ccc3c(c2)C(=C(c2nc(C)c[nH]2)c2ccccc2F)C(=O)N3)CC1 (mixture of isomers)
Assigned label: 0.0
//
Molecule: CCN1CCC(Nc2ccc3c(c2)C(=C(c2ccccc2)c2nc4ccccc4[nH]2)C(=O)N3)CC1 (mixture of isomers)
Assigned label: 0.0

Query: Does the molecule CCN1CCC(Nc2ccc3c(c2)C(=C(c2cccc(F)c2)c2ncc(C)[nH]2)C(=O)N3)CC1 (mixture of isomers) have recorded AUC(0-inf) that is 2 µM·h or more?
Result: 0.0

Query: Record CCN1CCC(Nc2ccc3c(c2)C(=C(c2cc(F)cc(F)c2)c2nc(C)c[nH]2)C(=O)N3)CC1 (mixture of isomers) ; criterion: AUC(0-inf) no lower than 2 µM·h. Met?
Result: 1.0

====

- Method summary: Plasma concentration in VEGF stimulated-mouse at 60 mg/kg, po after 4 hrs
- Type: ADME, organism-based
- Parameters: dose 60 mg/kg, route oral
Property name: concentration at 4 h (nM)
Report only the number, with the unit nM understood.

Query: Could you share which concentration at 4 h value was measured for CCN1CCC(Nc2ccc3c(c2)C(=C(c2ccc(Cl)cc2)c2ncc[nH]2)C(=O)N3)CC1 (mixture of isomers) ?
Result: 10

====

- Method summary: Drug uptake in VEGF-stimulated mouse lung at 60 mg/kg, po after 4 hrs
- Assay type: ADME, organism-based
- Set-up: dose 60 mg/kg, route oral
- Condition parameters: read-out: Drug uptake
Property name: concentration at 4 h (nM)
# number only, unit nM dropped from output

Query: Report concentration at 4 h for CCN1CCC(Nc2ccc3c(c2)C(=C(c2ccc(Cl)cc2)c2ncc[nH]2)C(=O)N3)CC1 (mixture of isomers) please.
Result: 810

====

- Method summary: Drug uptake in human MDA-MB-231 cells xenografted mouse tumor at 60 mg/kg
- Assay type: ADME, organism-based, Neoplasm
- Set-up: dose 60 mg/kg
- Condition parameters: in vivo, read-out: Drug uptake
Property name: concentration (µM)
Write down the numeric answer in µM and omit the unit.

Query: Given the compound CCN1CCC(Nc2ccc3c(c2)C(=C(c2ccc(Cl)cc2)c2ncc[nH]2)C(=O)N3)CC1 (mixture of isomers) , what is its reported concentration?
Result: 3.6
